# TARGET OR SYSTEM: M2 (Homo sapiens, UniProt P08172)
# Sequence (P08172 whole entry): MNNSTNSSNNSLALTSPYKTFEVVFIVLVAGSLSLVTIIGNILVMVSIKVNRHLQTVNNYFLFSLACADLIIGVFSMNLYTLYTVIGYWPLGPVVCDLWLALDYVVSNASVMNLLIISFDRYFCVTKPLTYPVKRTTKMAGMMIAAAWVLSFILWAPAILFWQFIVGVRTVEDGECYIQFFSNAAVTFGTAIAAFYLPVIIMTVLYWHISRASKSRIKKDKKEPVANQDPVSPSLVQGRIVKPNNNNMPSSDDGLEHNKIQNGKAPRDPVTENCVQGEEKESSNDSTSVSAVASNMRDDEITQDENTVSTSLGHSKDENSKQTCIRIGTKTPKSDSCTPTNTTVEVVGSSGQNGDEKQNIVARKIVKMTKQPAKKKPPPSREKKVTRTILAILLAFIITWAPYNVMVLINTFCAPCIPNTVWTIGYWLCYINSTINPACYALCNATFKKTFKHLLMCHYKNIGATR
# TEST: In vitro functional assay of muscarinic acetylcholine receptor activity, M2
# Assay type: cell-based
# TEST CONTEXT: antagonist IC50 at M2; read-out: M2 IC50
ENDPOINT NAME: IC50

[
  {
    "COMPOUND": "Cc1cc(Cl)cnc1N1CCN(C(=O)CCNCc2cccc3nccn23)[C@H](C)C1",
    "TARGET OR SYSTEM": "M2 (Homo sapiens, UniProt P08172)",
    "IC50": "> 10 µM"
  },
  {
    "COMPOUND": "Cc1cc(C#N)ncc1N1CCN(C(=O)CCNCc2c(F)ccc3nccn23)[C@@H](C)C1",
    "TARGET OR SYSTEM": "M2 (Homo sapiens, UniProt P08172)",
    "IC50": "1 to 10 µM"
  },
  {
    "COMPOUND": "O=C(CCCc1cccc2ncccc12)N1CCN(c2ccncc2F)CC1",
    "TARGET OR SYSTEM": "M2 (Homo sapiens, UniProt P08172)",
    "IC50": "> 10 µM"
  },
  {
    "COMPOUND": "N#Cc1cnccc1N1CCN(C(=O)CCCc2cccc3ncccc23)CC1",
    "TARGET OR SYSTEM": "M2 (Homo sapiens, UniProt P08172)",
    "IC50": "> 10 µM"
  },
  {
    "COMPOUND": "N#Cc1ccc(N2C3CCC2CN(C(=O)CCOCc2cccc4ncc(C(F)(F)F)n24)C3)nc1",
    "TARGET OR SYSTEM": "M2 (Homo sapiens, UniProt P08172)",
    "IC50": "1 to 10 µM"
  },
  {
    "COMPOUND": "O=C(COCc1cccc2nccn12)N1C[C@H]2CC[C@@H](C1)N2c1ccncc1F",
    "TARGET OR SYSTEM": "M2 (Homo sapiens, UniProt P08172)",
    "IC50": "1 to 10 µM"
  },
  {
    "COMPOUND": "COc1cnc2cccc(CCOCC(=O)N3CC4CCC(C3)N4c3ccc(C#N)cn3)c2c1",
    "TARGET OR SYSTEM": "M2 (Homo sapiens, UniProt P08172)",
    "IC50": "1 to 10 µM"
  },
  {
    "COMPOUND": "O=C(CCS(=O)(=O)c1cccc2ncsc12)N1CCN(c2ccc(CO)cc2)CC1",
    "TARGET OR SYSTEM": "M2 (Homo sapiens, UniProt P08172)",
    "IC50": "> 10 µM"
  },
  {
    "COMPOUND": "O=C(CCNCc1cccc2nccn12)N1CC2CCC(C1)N2c1ccncc1F",
    "TARGET OR SYSTEM": "M2 (Homo sapiens, UniProt P08172)",
    "IC50": "> 10 µM"
  },
  {
    "COMPOUND": "N#Cc1ccc(N2C3CCC2CN(C(=O)COCCc2cccn4ncnc24)C3)nc1",
    "TARGET OR SYSTEM": "M2 (Homo sapiens, UniProt P08172)",
    "IC50": "1 to 10 µM"
  }
]

`Cc1cc(F)cnc1N1CCN(C(=O)CCCc2cccc3ncccc23)[C@@H](C)C1` has a reported IC50 of 1 to 10 µM

`N#Cc1ccc(N2CCN(C(=O)CCS(=O)(=O)c3cccc4ncsc34)CC2)nc1` has a reported IC50 of 1 to 10 µM

`Cc1cc(F)cnc1N1CCN(C(=O)COCc2cccc3ncccc23)[C@@H](C)C1` has a reported IC50 of 1 to 10 µM

`N#Cc1ccc(N2C3COCC2CN(C(=O)CCCc2cccc4ncccc24)C3)nc1` has a reported IC50 of 1 to 10 µM

N#Cc1ccc(C2CC3CCC2CN3C(=O)CCS(=O)(=O)c2cccc3ncsc23)nc1 (centres unmarked) has a reported IC50 of 0.1 to 1 µM

`O=C(CCS(=O)(=O)c1cccc2ncsc12)N1C[C@H]2CC[C@@H](C1)N2c1ccncc1F` has a reported IC50 of < 0.1 µM

`O=C(CNCCc1cccn2nccc12)N1C[C@H]2CC[C@@H](C1)N2c1ccncc1F` has a reported IC50 of > 10 µM
